- assayText: Stability of cannabinoid compounds and Vitamin E components in Beverage 1 (AB White) by LCMSMS
- Type: physicochemical
- conditions: AB White stored at 8° C.; 25 days
Please note: Stability of Plant-Derived Cannabinoid Compounds in AB White, 8° C. exactly at 3 µg/mL is -1. Only values below 3 µg/mL get 1.

{"compound": "CCCCCc1cc(O)c2c(c1)OC(C)(C)[C@@H]1CCC(C)=C[C@@H]21 [D9 THC, delta-9-tetrahydrocannabinol, reference compound]", "label": -1}
{"compound": "C=C(C)[C@@H]1CCC(C)=C[C@H]1c1c(O)cc(CCCCC)cc1O [CBD, cannabidiol, reference compound]", "label": -1}
{"compound": "CCCCCc1cc(O)c(C/C=C(\\C)CCC=C(C)C)c(O)c1", "label": -1}
{"compound": "CCCCCc1cc(O)c2c(c1)OC(C)(C)c1ccc(C)cc1-2", "label": 1}
{"compound": "C=C(C)[C@@H]1CCC(C)=C[C@H]1c1c(O)cc(CCC)cc1O", "label": 1}
{"compound": "CCCCCc1cc(O)c2c(c1)OC(C)(CCC=C(C)C)C=C2 (stereo not drawn)", "label": 1}

====

- assayText: Stability of cannabinoid compounds and Vitamin E components in Beverage 1 (AB White) by LCMSMS
- Type: physicochemical
- conditions: AB White stored at 21-25° C.; 270 days
List of Stability of Plant-Derived Cannabinoid Compounds in AB White, 21-25° C. values.
propertyName: Stability of Plant-Derived Cannabinoid Compounds in AB White, 21-25° C.

{"compound": "CCCc1cc(O)c2c(c1)OC(C)(C)[C@@H]1CCC(C)=C[C@@H]21 [THCV, delta-9-tetrahydrocannabivarin]", "result": "3.56 µg/mL"}
{"compound": "CCCCCc1cc2c(c(O)c1C(=O)O)[C@@H]1C=C(C)CC[C@H]1C(C)(C)O2 [D9 THCA, delta-9-tetrahydrocannabinolic acid]", "result": "0.905 µg/mL"}
{"compound": "CCCCCc1cc(O)c2c(c1)OC(C)(CCC=C(C)C)C=C2 (stereo not drawn)", "result": "0.316 µg/mL"}
{"compound": "C=C(C)[C@@H]1CCC(C)=C[C@H]1c1c(O)cc(CCC)cc1O", "result": "0.148 µg/mL"}
{"compound": "CCCCCc1cc(O)c2c(c1)OC1(C)CCC3C1C2C3(C)C (stereo not drawn)", "result": "0.535 µg/mL"}
{"compound": "CCCCCc1cc(O)c2c(c1)OC(C)(C)[C@@H]1CCC(C)=C[C@@H]21 [D9 THC, delta-9-tetrahydrocannabinol, reference compound]", "result": "11.9 µg/mL"}
{"compound": "C=C(C)[C@@H]1CCC(C)=C[C@H]1c1c(O)cc(CCCCC)c(C(=O)O)c1O", "result": "1.71 µg/mL"}
{"compound": "CCCCCc1cc(O)c(C/C=C(\\C)CCC=C(C)C)c(O)c1", "result": "4.62 µg/mL"}
{"compound": "CCCCCc1cc(O)c2c(c1)OC(C)(C)c1ccc(C)cc1-2", "result": "2.67 µg/mL"}

====

- assayText: Stability of cannabinoid compounds and Vitamin E components in Beverage 1 (AB White) by LCMSMS
- Type: physicochemical
- conditions: AB White stored at 21-25° C.; 540 days
So basically every entry gets a class from its Stability of Plant-Derived Cannabinoid Compounds in AB White, 21-25° C., ranges being bin 0: < 0.5 µg/mL; bin 1: ≥ 0.5 µg/mL and < 3 µg/mL; bin 2: ≥ 3 µg/mL

{"compound": "CCCCCc1cc(O)c2c(c1)OC(C)(C)[C@@H]1CCC(C)=C[C@@H]21 [D9 THC, delta-9-tetrahydrocannabinol, reference compound]", "label": "bin 2"}
{"compound": "C=C(C)[C@@H]1CCC(C)=C[C@H]1c1c(O)cc(CCCCC)c(C(=O)O)c1O", "label": "bin 1"}
{"compound": "CCCc1cc(O)c2c(c1)OC(C)(C)[C@@H]1CCC(C)=C[C@@H]21 [THCV, delta-9-tetrahydrocannabivarin]", "label": "bin 2"}
{"compound": "CCCCCc1cc(O)c2c(c1)OC(C)(CCC=C(C)C)C=C2 (stereo not drawn)", "label": "bin 0"}
{"compound": "CCCCCc1cc(O)c2c(c1)OC(C)(C)c1ccc(C)cc1-2", "label": "bin 1"}
{"compound": "C=C(C)[C@@H]1CCC(C)=C[C@H]1c1c(O)cc(CCC)cc1O", "label": "bin 0"}
{"compound": "CCCCCc1cc(O)c(C/C=C(\\C)CCC=C(C)C)c(O)c1", "label": "bin 2"}
{"compound": "CCCCCc1cc2c(c(O)c1C(=O)O)[C@@H]1C=C(C)CC[C@H]1C(C)(C)O2 [D9 THCA, delta-9-tetrahydrocannabinolic acid]", "label": "bin 1"}

====

- assayText: Stability of cannabinoid compounds and Vitamin E components in Beverage 1 (AB White) by LCMSMS
- Type: physicochemical
- conditions: AB White stored at 21-25° C.; 12 days
Please note: Stability of Plant-Derived Cannabinoid Compounds in AB White, 21-25° C. exactly at 0.9 µg/mL is Condition not met. Only values below 0.9 µg/mL get Condition met.

{"compound": "CCCCCc1cc2c(c(O)c1C(=O)O)[C@@H]1C=C(C)CC[C@H]1C(C)(C)O2 [D9 THCA, delta-9-tetrahydrocannabinolic acid]", "label": "Condition not met"}
{"compound": "CCCCCc1cc(O)c2c(c1)OC(C)(CCC=C(C)C)C=C2 (stereo not drawn)", "label": "Condition met"}
{"compound": "CCCCCc1cc(O)c(C/C=C(\\C)CCC=C(C)C)c(O)c1", "label": "Condition not met"}
{"compound": "CCCCCc1cc(O)c2c(c1)OC(C)(C)c1ccc(C)cc1-2", "label": "Condition not met"}
{"compound": "C=C(C)[C@@H]1CCC(C)=C[C@H]1c1c(O)cc(CCC)cc1O", "label": "Condition met"}
{"compound": "C=C(C)[C@@H]1CCC(C)=C[C@H]1c1c(O)cc(CCCCC)c(C(=O)O)c1O", "label": "Condition not met"}
{"compound": "CCCCCc1cc(O)c2c(c1)OC1(C)CCC3C1C2C3(C)C (stereo not drawn)", "label": "Condition met"}
{"compound": "CCCc1cc(O)c2c(c1)OC(C)(C)[C@@H]1CCC(C)=C[C@@H]21 [THCV, delta-9-tetrahydrocannabivarin]", "label": "Condition not met"}
{"compound": "CCCCCc1cc(O)c2c(c1)OC(C)(C)[C@@H]1CCC(C)=C[C@@H]21 [D9 THC, delta-9-tetrahydrocannabinol, reference compound]", "label": "Condition not met"}

====

- assayText: Stability of cannabinoid compounds and Vitamin E components in Beverage 2 (AB Red) by LCMSMS
- Format: physicochemical
- conditions: stored at 8° C., 300 days
List of Stability of Plant-Derived Cannabinoid Compounds in AB Red values.
propertyName: Stability of Plant-Derived Cannabinoid Compounds in AB Red

{"compound": "CCCc1cc(O)c2c(c1)OC(C)(C)[C@@H]1CCC(C)=C[C@@H]21 [THCV, delta-9-tetrahydrocannabivarin]", "result": "3.15 µg/mL"}
{"compound": "C=C(C)[C@@H]1CCC(C)=C[C@H]1c1c(O)cc(CCCCC)c(C(=O)O)c1O", "result": "1.65 µg/mL"}
{"compound": "CCCCCc1cc(O)c2c(c1)OC(C)(C)c1ccc(C)cc1-2", "result": "2.75 µg/mL"}
{"compound": "CCCCCc1cc(O)c(C/C=C(\\C)CCC=C(C)C)c(O)c1", "result": "4.70 µg/mL"}
{"compound": "C=C(C)[C@@H]1CCC(C)=C[C@H]1c1c(O)cc(CCC)cc1O", "result": "0.193 µg/mL"}
{"compound": "CCCCCc1cc(O)c2c(c1)OC(C)(CCC=C(C)C)C=C2 (stereo not drawn)", "result": "0.280 µg/mL"}
{"compound": "CCCCCc1cc2c(c(O)c1C(=O)O)[C@@H]1C=C(C)CC[C@H]1C(C)(C)O2 [D9 THCA, delta-9-tetrahydrocannabinolic acid]", "result": "1.30 µg/mL"}
{"compound": "CCCCCc1cc(O)c2c(c1)OC1(C)CCC3C1C2C3(C)C (stereo not drawn)", "result": "0.489 µg/mL"}
{"compound": "CCCCCc1cc(O)c2c(c1)OC(C)(C)[C@@H]1CCC(C)=C[C@@H]21 [D9 THC, delta-9-tetrahydrocannabinol, reference compound]", "result": "12.4 µg/mL"}

====

List of Stability of Plant-Derived Cannabinoid Compounds in AB Red values.
- assayText: Stability of cannabinoid compounds and Vitamin E components in Beverage 2 (AB Red) by LCMSMS
- Assay type: physicochemical
- conditions: stored at 21-25° C., 240 days
propertyName: Stability of Plant-Derived Cannabinoid Compounds in AB Red (µg/mL)

{"molecule": "CCCCCc1cc(O)c2c(c1)OC1(C)CCC3C1C2C3(C)C (stereo not drawn)", "measurementUnits": "µg/mL", "number": 0.49}
{"molecule": "CCCCCc1cc(O)c2c(c1)OC(C)(C)[C@@H]1CCC(C)=C[C@@H]21 [D9 THC, delta-9-tetrahydrocannabinol, reference compound]", "measurementUnits": "µg/mL", "number": 12.5}
{"molecule": "CCCCCc1cc(O)c2c(c1)OC(C)(CCC=C(C)C)C=C2 (stereo not drawn)", "measurementUnits": "µg/mL", "number": 0.28}
{"molecule": "CCCCCc1cc(O)c(C/C=C(\\C)CCC=C(C)C)c(O)c1", "measurementUnits": "µg/mL", "number": 4.56}
{"molecule": "CCCCCc1cc2c(c(O)c1C(=O)O)[C@@H]1C=C(C)CC[C@H]1C(C)(C)O2 [D9 THCA, delta-9-tetrahydrocannabinolic acid]", "measurementUnits": "µg/mL", "number": 1.31}
{"molecule": "C=C(C)[C@@H]1CCC(C)=C[C@H]1c1c(O)cc(CCC)cc1O", "measurementUnits": "µg/mL", "number": 0.20}
{"molecule": "C=C(C)[C@@H]1CCC(C)=C[C@H]1c1c(O)cc(CCCCC)c(C(=O)O)c1O", "measurementUnits": "µg/mL", "number": 1.60}
{"molecule": "CCCc1cc(O)c2c(c1)OC(C)(C)[C@@H]1CCC(C)=C[C@@H]21 [THCV, delta-9-tetrahydrocannabivarin]", "measurementUnits": "µg/mL", "number": 3.18}
{"molecule": "CCCCCc1cc(O)c2c(c1)OC(C)(C)c1ccc(C)cc1-2", "measurementUnits": "µg/mL", "number": 2.73}
